test: Bioavailability in mouse at 30 mg/kg, po measured upto 24 hrs by LC-MS/MS analysis; assay type: ADME, organism-based; details: in vivo
readout_name: bioavailability

[[record]]
mol = "CC[C@](C)(N)c1ccnc(Nc2cc3cc(-c4cnnn4C)nc(N)c3cn2)c1"
readout_name = "bioavailability"
value_measured = "7%"

[[record]]
mol = "CCC(N)(CC)c1ccnc(Nc2cc3cc(-c4cnnn4C)nc(N)c3cn2)c1"
readout_name = "bioavailability"
value_measured = "96%"

[[record]]
mol = "CC[C@@](C)(N)c1ccnc(Nc2cc3cc(-c4cnnn4C)nc(N)c3cn2)c1"
readout_name = "bioavailability"
value_measured = "3%"


* * *

assay: Clearance in mouse blood at 30 mg/kg, po measured upto 24 hrs by LC-MS/MS analysis; type: ADME, organism-based; conditions: whole blood
Recorded measurements of CL/F, one per entry
readout_name: CL/F

[[record]]
mol = "CC[C@@](C)(N)c1ccnc(Nc2cc3cc(-c4cnnn4C)nc(N)c3cn2)c1"
readout_name = "CL/F"
value_measured = "49.4 mL/min/kg"

[[record]]
mol = "CCC(N)(CC)c1ccnc(Nc2cc3cc(-c4cnnn4C)nc(N)c3cn2)c1"
readout_name = "CL/F"
value_measured = "109 mL/min/kg"

[[record]]
mol = "CC[C@](C)(N)c1ccnc(Nc2cc3cc(-c4cnnn4C)nc(N)c3cn2)c1"
readout_name = "CL/F"
value_measured = "124 mL/min/kg"

